Assayed Target: T1, USP8 rhodanese domain (174-317), GST tag cleaved (human, UniProt P40818 174-317)
T1 construct: Ubiquitin carboxyl-terminal hydrolase 8 (USP8), human, rhodanese domain, residues 174-317; also called Rhod domain; source: E. coli BL21-Gold (DE3), purified (glutathione sepharose, GST cleaved on beads with HRV 3C protease)
T1 sequence (looked up): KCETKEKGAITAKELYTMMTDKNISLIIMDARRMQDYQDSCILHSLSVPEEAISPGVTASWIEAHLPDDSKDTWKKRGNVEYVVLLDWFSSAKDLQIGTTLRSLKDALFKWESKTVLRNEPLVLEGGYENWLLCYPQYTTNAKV
Test Name: fluorescence polarisation; competitive: 1.5 µM protein preincubated with 10 nM FITC-labeled peptide, displaced by increasing concentration of unlabeled peptide; 50 mM sodium phosphate pH 7.4, 1 mM DTT
Settings: both partners purified
pKd: −log10 of the molar value.
List of pKd values.

Binder | pKd
GMERVLGGLSSPLRLL (also called positive control; source: JPT Peptide Technologies; free, unlabelled for fluorescence polarisation (GeneCust, >95% purity)) [KIAA1614 568-583 peptide, synthetic] | 5.00
GLALWEAKMKQLAERA (source: synthetic peptide (GeneCust, >95% purity)) [TET3 1705-1720 peptide, unlabelled, synthetic] | 4.48
